Tested on: MCC-13
Assay details: qHTS assay to identify novel small-molecules to repurpose for Merkel cell carcinoma treatment (AID 1296009); further: potency means the concentration at half of the fitted maximal effect; nearly all actives have a fitted effect of over 60% in size
Reported conditions: MCC and control cell lines, CellTiter-Glo viability, 72 h; series mostly up to 46 µM
Inconclusive results are not listed. Calls of active or inactive are those of the source. The call rests on the fitted dose curve; in most records, active means well fitted inhibition curve with a large enough effect; inconclusive means small, poorly fitted or top-dose-only effect; inactive means flat fitted curve, though single readings scatter.
// reported Potency per item

| Structure smiles | Assay system | Potency |
| --- | --- | --- |
| C=CCNc1c(O)cc2c(O)c1C[C@@H](C)C[C@H](OC)[C@@H](O)[C@@H](C)C=C(C)[C@H](OC(N)=O)[C@@H](OC)C=CC=C(C)C(=O)N2 | MCC-13 | 5.9 µM (active) |
| COc1cccc2c1C(=O)c1c(O)c3c(c(O)c1C2=O)C[C@@](O)(C(=O)CO)C[C@H]3O[C@H]1C[C@H](N)[C@H](O)[C@H](C)O1 | MCC-13 | 2.64 µM (active) |

====

System: Zika virus NS2B-NS3 protease
Assay details: Primary screen GU AMC qHTS for Zika virus inhibitors (AID 1347154); further: nearly all actives have a fitted effect of over 70% in size
Reported conditions: Zika NS2B-NS3 unlinked protease, AMC fluorogenic substrate; series mostly up to 54.1 µM
Inconclusive results are not listed. Activity calls are given as the source filed them. Calls come from the whole dose curve; as a rule, active = well fitted inhibition curve with a large enough effect; inconclusive = small, poorly fitted or top-dose-only effect; inactive = flat fitted curve, though single readings scatter.
Outcome codes: active, inactive

| Compound | Assay system | Label |
| --- | --- | --- |
| CC(C)(O)CC[C@@H](O)[C@](C)(O)[C@H]1CC[C@@]2(O)C3=CC(=O)[C@@H]4C[C@@H](O)[C@@H](O)C[C@]4(C)[C@@H]3CC[C@]12C | Zika virus NS2B-NS3 protease | inactive |
| CCCCCCCCCCCC(CC1OC(=O)C1CCCCCC)OC(=O)C(CC(C)C)NC=O (centres undefined) | Zika virus NS2B-NS3 protease | inactive |
| CN(C)CC(=O)N1CCC(c2ccc(NC(=O)c3ncc(C#N)[nH]3)c(C3=CCCCC3)c2)CC1 | Zika virus NS2B-NS3 protease | inactive |
| Oc1cc(-c2nc(-c3ccccc3)[nH]c2-c2ccncc2)ccc1Cl | Zika virus NS2B-NS3 protease | inactive |
| Cc1cnc(Nc2ccc(N3CCN(C)CC3)cc2)nc1Nc1cccc(S(=O)(=O)NC(C)(C)C)c1 | Zika virus NS2B-NS3 protease | inactive |
| C=CC(=O)N1CCc2ccc(-n3c(=O)ccc4cnc5ccc(-c6cnn(C)c6)cc5c43)cc21 | Zika virus NS2B-NS3 protease | inactive |
| Cc1noc(-c2ccc(CSCCC(=O)O)cc2)c1NC(=O)OC(C)c1ccccc1Cl (centres undefined) | Zika virus NS2B-NS3 protease | inactive |
| OCCNC1CCCc2c1[nH]c1ccc(-c3ccccc3)cc21 (centres undefined) | Zika virus NS2B-NS3 protease | inactive |
| O=C1c2cccc(O)c2C(=O)c2c(O)cc(CO)cc21 | Zika virus NS2B-NS3 protease | inactive |
| C=C[C@@H]1CN2CCC1C[C@H]2[C@H](O)c1ccnc2ccc(OC)cc12 (some centres undefined) | Zika virus NS2B-NS3 protease | inactive |
| Cc1cn([C@@H]2O[C@H](CO)[C@@H](O)[C@H]2F)c(=O)[nH]c1=O | Zika virus NS2B-NS3 protease | inactive |
| Cn1cc(C[C@@H](N)C(=O)O)c2ccccc21 | Zika virus NS2B-NS3 protease | inactive |
| CC(=O)OCC(=O)[C@@]12N=C(C)O[C@H]1C[C@H]1[C@@H]3CCC4=CC(=O)C=C[C@]4(C)[C@@H]3[C@@H](O)C[C@@]12C | Zika virus NS2B-NS3 protease | inactive |
| CCN(CC)Cc1ccc2cc(COC(=O)Nc3ccc(C(=O)NO)cc3)ccc2c1 | Zika virus NS2B-NS3 protease | inactive |
| CN[C@H]1[C@@H](O)[C@@H]2O[C@@H]3O[C@H](C)CC(=O)[C@]3(O)O[C@@H]2[C@@H](NC)[C@H]1O | Zika virus NS2B-NS3 protease | inactive |
| Cc1ccc(-n2[nH]c(C)c(N=Nc3cccc(-c4cccc(C(=O)O)c4)c3O)c2=O)cc1C | Zika virus NS2B-NS3 protease | active |
| CN1CCc2c(c3ccccc3n2Cc2ccc(C(=O)NO)cc2)C1 | Zika virus NS2B-NS3 protease | inactive |
| C[C@H](CCC(=O)O)[C@H]1CC[C@H]2[C@@H]3[C@H](O)C[C@@H]4C[C@H](O)CC[C@]4(C)[C@@H]3CC[C@]12C | Zika virus NS2B-NS3 protease | inactive |
| CC(C)(C)c1nc2c3cc[nH]c(=O)c3c3cc(F)ccc3c2[nH]1 | Zika virus NS2B-NS3 protease | inactive |
